Target: estrogen receptor alpha (ERalpha) (Homo sapiens)
Construct: purchased Wako Chemicals (Osaka, Japan)
Assay: Estrogen-R (α) competitor screening kit, ligand binding screen
Conditions: compound at 5 × 10^−3 M; mean ± S.E.M., n = 4; percentage of the negative control
Checkbox rule: % Binding to ERα lower than 60% = MET; % Binding to ERα not lower than 60% = NOT MET.

| compound | assigned-class |
| --- | --- |
| COc1ccc(C[C@H]2COC(=O)[C@@H]2Cc2ccc(O)c(OC)c2)cc1O | MET |
| COc1cc(C[C@H]2C(=O)OC[C@@H]2Cc2ccc(OC)c(OC)c2)ccc1O [Compound 8, (−)-arctigenin] | MET |
| COc1cc(C[C@H]2COC(=O)[C@@H]2Cc2ccc(O)c(O)c2)ccc1O | NOT MET |
| COc1ccc(C[C@H]2COC(=O)[C@@H]2Cc2ccc(O)c(O)c2)cc1O | NOT MET |
| COc1cc(C[C@H]2COC(=O)[C@@H]2Cc2ccc(O)c(OC)c2)ccc1O [Compound 5, (−)-matairesinol] | MET |
| COc1cc(C[C@H]2C(=O)OC[C@@H]2Cc2ccc(O)c(O)c2)ccc1O | NOT MET |
| COc1ccc(C[C@H]2COC(=O)[C@@H]2Cc2ccc(O)c(O)c2)cc1OC | NOT MET |
| O=C1OC[C@H](Cc2ccc(O)c(O)c2)[C@H]1Cc1ccc(O)c(O)c1 [Compound 1, (−)-dihydroxyenterolactone] | NOT MET |

###

Biological target: estrogen receptor alpha (ERalpha) (Homo sapiens, UniProt P03372)
Sequence (P03372 whole entry): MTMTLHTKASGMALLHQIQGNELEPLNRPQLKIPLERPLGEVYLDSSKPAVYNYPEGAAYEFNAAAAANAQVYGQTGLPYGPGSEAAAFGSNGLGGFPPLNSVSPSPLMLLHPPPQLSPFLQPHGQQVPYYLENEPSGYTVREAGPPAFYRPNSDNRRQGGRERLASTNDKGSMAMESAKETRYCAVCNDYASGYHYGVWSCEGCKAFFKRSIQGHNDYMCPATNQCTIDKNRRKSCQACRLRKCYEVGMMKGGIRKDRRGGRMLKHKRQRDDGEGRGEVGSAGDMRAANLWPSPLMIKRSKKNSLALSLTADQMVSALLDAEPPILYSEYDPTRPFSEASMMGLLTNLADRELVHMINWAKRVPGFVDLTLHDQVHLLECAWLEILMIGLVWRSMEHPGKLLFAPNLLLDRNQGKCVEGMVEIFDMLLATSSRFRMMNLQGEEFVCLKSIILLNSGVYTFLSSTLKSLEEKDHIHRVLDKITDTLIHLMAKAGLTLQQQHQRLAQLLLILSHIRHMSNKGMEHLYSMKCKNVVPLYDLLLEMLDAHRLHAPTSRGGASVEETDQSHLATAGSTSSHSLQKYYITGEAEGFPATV
Experiment: Estrogen-R (α) competitor screening kit, ligand binding screen
Conditions: ER alpha competitor binding; non-linear regression, one site competition

| compound | IC50 |
| --- | --- |
| COc1cc(C[C@H]2COC(=O)[C@@H]2Cc2ccc(O)c(OC)c2)ccc1O [Compound 5, (−)-matairesinol] | > 5 mM |
| COc1ccc(C[C@H]2COC(=O)[C@@H]2Cc2ccc(O)c(OC)c2)cc1O [Compound 7] | > 5 mM |
| COc1cc(C[C@H]2C(=O)OC[C@@H]2Cc2ccc(OC)c(OC)c2)ccc1O [Compound 8, (−)-arctigenin] | > 5 mM |

###

Some compounds, each annotated with its measured % Binding to ERα.
Target: estrogen receptor alpha (ERalpha) (Homo sapiens)
Construct: purchased Wako Chemicals (Osaka, Japan)
Test: Estrogen-R (α) competitor screening kit, ligand binding screen
Conditions: compound at 10^−5 M; mean ± S.E.M., n = 4; percentage of the negative control (labeled estrogen mixture)
Procedure: An estrogen-R (α) competitor screening kit was purchased from Wako Chemicals (Osaka, Japan). The assay depends on the competition between the samples applied in different concentrations and the labeled estrogen mixture. The amount of the ligand that binds to the ERalpha coated on the microplate well is determined by the dynamic equilibrium among all the ligand concentrations in the mixture, the difference of their binding affinities to the receptor, and the incubation time. […]
readout: % Binding to ERα (%)

| compound | units-symbol | value-measured |
| --- | --- | --- |
| COc1ccc(C[C@H]2COC(=O)[C@@H]2Cc2ccc(O)c(O)c2)cc1OC | % | −2.3 |
| COc1cc(C[C@H]2C(=O)OC[C@@H]2Cc2ccc(O)c(O)c2)ccc1O | % | 1.4 |
| COc1cc(C[C@H]2C(=O)OC[C@@H]2Cc2ccc(OC)c(OC)c2)ccc1O [Compound 8, (−)-arctigenin] | % | −1.4 |

Entry source: paper PMC6269892
